Values were extracted from patent US4340595A.

test: acute toxicity, intraperitoneal administration to mice; set-up: species or system mouse (NMRI, female); settings: mouse, in vivo, ip, Probit analysis
Structures can show the parent of a compound that is named as a salt.

COMPOUND: CC(C)(C)NCC(O)COc1cccc2c1CCCC(=O)N2 (stereo not shown) [Example 2, hydrochloride]
LD50 at 24 h (mg/kg): 237
